# system tested: HDAC6 (Homo sapiens, UniProt Q9UBN7)
# Construct: purchased Reaction Biology Corporation (assay run by the CRO)
# Sequence (Q9UBN7 whole entry): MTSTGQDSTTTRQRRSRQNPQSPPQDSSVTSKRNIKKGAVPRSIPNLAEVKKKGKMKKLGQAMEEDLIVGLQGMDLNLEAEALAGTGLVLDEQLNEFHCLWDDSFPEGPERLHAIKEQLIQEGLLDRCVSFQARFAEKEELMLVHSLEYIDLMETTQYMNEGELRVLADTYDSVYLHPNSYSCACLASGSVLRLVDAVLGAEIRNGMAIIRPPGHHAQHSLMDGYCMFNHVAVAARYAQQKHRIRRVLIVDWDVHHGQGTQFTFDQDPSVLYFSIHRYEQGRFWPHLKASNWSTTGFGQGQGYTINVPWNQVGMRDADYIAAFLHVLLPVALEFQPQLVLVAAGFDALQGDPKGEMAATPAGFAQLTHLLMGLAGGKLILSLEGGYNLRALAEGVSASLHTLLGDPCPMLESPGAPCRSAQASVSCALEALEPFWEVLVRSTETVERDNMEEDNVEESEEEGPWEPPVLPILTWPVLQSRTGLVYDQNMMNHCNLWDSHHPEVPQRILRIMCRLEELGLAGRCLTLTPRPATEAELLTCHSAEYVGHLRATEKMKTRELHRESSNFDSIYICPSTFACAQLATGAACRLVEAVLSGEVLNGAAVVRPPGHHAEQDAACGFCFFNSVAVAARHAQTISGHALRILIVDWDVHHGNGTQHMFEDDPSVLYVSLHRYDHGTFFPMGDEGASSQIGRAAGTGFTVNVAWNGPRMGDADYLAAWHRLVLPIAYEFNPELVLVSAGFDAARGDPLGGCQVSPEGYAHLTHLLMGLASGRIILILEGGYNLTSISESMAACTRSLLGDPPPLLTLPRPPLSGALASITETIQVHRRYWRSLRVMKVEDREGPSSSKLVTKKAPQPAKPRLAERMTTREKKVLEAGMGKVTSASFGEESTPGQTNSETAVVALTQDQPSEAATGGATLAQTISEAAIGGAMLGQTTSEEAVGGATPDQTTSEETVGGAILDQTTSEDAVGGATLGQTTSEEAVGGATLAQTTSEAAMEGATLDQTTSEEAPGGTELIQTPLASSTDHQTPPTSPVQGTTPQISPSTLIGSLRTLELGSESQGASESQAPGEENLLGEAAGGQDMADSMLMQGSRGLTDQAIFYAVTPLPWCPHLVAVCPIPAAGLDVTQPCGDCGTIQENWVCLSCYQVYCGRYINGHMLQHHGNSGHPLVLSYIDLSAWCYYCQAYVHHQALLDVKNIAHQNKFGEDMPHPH
# protocol description: HDAC6 inhibition, full IC50 measurement (Reaction Biology; fluorogenic p53 peptide RHKK(Ac)AMC)
# Assay type: biochemical
# test context: Conc. 1.11E-06 M, t2
Peptide text beside a SMILES is read from it.
attribute measured: HDAC6 activity raw data (signal)

compound	test result
N=C(N)NCCC[C@@H]1NC(=O)[C@H](Cc2c[nH]c3ccccc23)NC(=O)[C@H](CC(=O)O)NC(=O)[C@@H](CO)NC(=O)[C@H](Cc2c[nH]c3ccccc23)NC(=O)[C@H](CCCCCS)NC(=O)[C@H](CCC(N)=O)NC1=O [des4.1.0, SHA-Trp-dSer-Asp-Trp-Arg-Gln] (HELM PEPTIDE1{D.W.R.Q.[O=C([C@H](CCCCCS)N[*:1])[*:2]].W.[dS]}$PEPTIDE1,PEPTIDE1,1:R1-7:R2$$$V2.0)	12343
CCCC[C@H]1NC(=O)[C@H](Cc2ccccc2)NC(=O)[C@H](CCCCCS)NC(=O)[C@@H](CCCNC(=N)N)NC(=O)[C@H](C)NC(=O)[C@@H](CO)NC(=O)[C@@H](C)NC(=O)[C@H](CCCCN)NC1=O [des4.3.1.3, SHA-Phe-dNle-Lys-dAla-dSer-Ala-dArg] (HELM PEPTIDE1{A.[dR].[O=C([C@H](CCCCCS)N[*:1])[*:2]].F.[CCCC[C@@H](N[*:1])C(=O)[*:2]].K.[dA].[dS]}$PEPTIDE1,PEPTIDE1,1:R1-8:R2$$$V2.0)	32571
N=C(N)NCCC[C@H]1NC(=O)[C@@H]2CCCN2C(=O)[C@H](CO)NC(=O)[C@@H](Cc2c[nH]cn2)NC(=O)[C@H](CCCCCS)NC(=O)[C@H](CCCCN)NC(=O)[C@H](Cc2ccc(O)cc2)NC(=O)[C@H]2CCCN2C(=O)[C@@H](CCC(N)=O)NC1=O [des3.1.0, SHA-dHis-Ser-Pro-dArg-dGln-dPro-Tyr-Lys] (HELM PEPTIDE1{K.[O=C([C@H](CCCCCS)N[*:1])[*:2]].[dH].S.P.[dR].[dQ].[dP].Y}$PEPTIDE1,PEPTIDE1,1:R1-9:R2$$$V2.0)	90822
